Where do these numbers come from? They come from ChEMBL document CHEMBL5729184.

Each entry below carries its reported IC50.
# Assay target: Glutamate receptor ionotropic, NMDA 2B (Homo sapiens, UniProt Q13224)
# Sequence (Q13224 whole entry): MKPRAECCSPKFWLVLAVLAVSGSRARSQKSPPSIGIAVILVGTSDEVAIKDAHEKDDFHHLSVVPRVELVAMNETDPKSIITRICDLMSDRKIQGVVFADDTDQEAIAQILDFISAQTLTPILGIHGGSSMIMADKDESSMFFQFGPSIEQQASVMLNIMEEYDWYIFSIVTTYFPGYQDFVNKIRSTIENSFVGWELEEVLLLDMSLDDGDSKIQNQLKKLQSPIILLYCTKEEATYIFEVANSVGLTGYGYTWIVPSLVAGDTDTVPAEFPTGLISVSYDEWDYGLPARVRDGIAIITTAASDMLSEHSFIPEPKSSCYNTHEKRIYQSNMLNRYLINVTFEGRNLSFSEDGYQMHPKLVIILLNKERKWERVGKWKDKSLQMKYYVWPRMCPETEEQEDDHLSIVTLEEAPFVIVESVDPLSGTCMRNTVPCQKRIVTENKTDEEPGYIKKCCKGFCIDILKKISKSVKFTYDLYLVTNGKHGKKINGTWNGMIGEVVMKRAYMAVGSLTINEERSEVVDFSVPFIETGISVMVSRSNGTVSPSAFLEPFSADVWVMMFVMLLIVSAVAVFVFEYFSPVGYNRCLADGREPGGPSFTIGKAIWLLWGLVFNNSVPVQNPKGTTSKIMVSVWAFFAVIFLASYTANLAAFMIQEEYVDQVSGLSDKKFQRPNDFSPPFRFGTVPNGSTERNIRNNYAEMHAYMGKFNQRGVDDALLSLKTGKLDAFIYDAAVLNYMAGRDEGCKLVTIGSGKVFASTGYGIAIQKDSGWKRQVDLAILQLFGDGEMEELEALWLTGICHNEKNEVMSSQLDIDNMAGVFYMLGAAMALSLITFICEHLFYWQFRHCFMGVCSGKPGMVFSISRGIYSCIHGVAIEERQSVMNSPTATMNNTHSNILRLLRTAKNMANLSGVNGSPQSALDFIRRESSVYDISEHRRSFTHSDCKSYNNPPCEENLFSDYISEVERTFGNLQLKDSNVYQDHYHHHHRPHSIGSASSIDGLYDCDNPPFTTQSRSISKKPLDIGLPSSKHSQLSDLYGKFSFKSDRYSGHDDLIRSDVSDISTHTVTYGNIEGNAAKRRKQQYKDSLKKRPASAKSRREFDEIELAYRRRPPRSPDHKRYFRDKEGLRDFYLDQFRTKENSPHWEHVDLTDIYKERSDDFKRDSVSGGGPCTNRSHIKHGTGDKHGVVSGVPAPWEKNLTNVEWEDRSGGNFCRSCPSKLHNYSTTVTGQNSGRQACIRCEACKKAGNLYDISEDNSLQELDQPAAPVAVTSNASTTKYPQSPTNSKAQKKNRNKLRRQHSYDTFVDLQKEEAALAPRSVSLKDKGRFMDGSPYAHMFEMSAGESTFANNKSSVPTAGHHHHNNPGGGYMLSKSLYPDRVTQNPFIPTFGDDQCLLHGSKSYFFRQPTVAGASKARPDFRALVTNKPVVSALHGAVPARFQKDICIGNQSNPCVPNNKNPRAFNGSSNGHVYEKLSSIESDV
# Procedure details: FLIPR Assay: At the assay day cells were washed 3× with assay buffer, 10 μL buffer remained in the wells after washing. 10 μL Ca kit loading buffer (AAT Bioquest) was added to the cells and the plates were incubated with lid for 60 minutes at r.t. 20 μl assay buffer containing 60 μM glycine (20 μM final) and 3 μM glutamate (1 μM final) was added to column 1-23. Fluorescence (indicating the calcium influx as a result of the NR1/NR2B ion channel activation) was read on the FLIPRtetra device for 60 seconds to monitor the glutamate induced effects. After 2 minutes 20 μL of compound or controls (row 1-22) in assay buffer were carefully added to the wells. […] Each assay microtiter plate contained wells (in column 23 or 24) with DMSO controls instead of compound as controls for glycine/glutamate induced fluorescence (high controls) and wells with 1 μM of a reference NR2b NAM as low controls (Compound 22; reference: Layton, Mark E et al, ACS Chemical Neuroscience 2011, 2(7), 352-362).

Compound | Unit tag | IC50
O=C(OCc1c(F)cc(F)cc1F)N1CCOC(c2nc3cncnc3[nH]2)C1 (centres undefined) | nM | 84
Cc1ccc(COC(=O)N2CCOC(c3nc4cncnc4[nH]3)C2)cc1 (centres undefined) | nM | 67
O=C(OCc1ccc(F)cc1)N1CCOC(c2nc3cncnc3[nH]2)C1 (centres undefined) | nM | 107
O=C(OCc1ccc(F)cc1Cl)N1CCOC(c2nc3cncnc3[nH]2)C1 (centres undefined) | nM | 90
Cc1cccc(F)c1COC(=O)N1CCOC(c2nc3cncnc3[nH]2)C1 (centres undefined) | nM | 118
O=C(OCc1ccccc1Cl)N1CCOC(c2nc3cncnc3[nH]2)C1 (centres undefined) | nM | 88
Cc1ccc(COC(=O)N2CCOC(c3nc4c(C)ncnc4[nH]3)C2)cc1 (centres undefined) | nM | 150
O=C(OCc1ccccc1)N1CCOC(c2nc3cncnc3[nH]2)C1 (centres undefined) | nM | 114
O=C(OCc1ccc(Cl)cc1)N1CCOC(c2nc3cncnc3[nH]2)C1 (centres undefined) | nM | 113
O=C(OCc1ccc(F)cc1F)N1CCOC(c2nc3cncnc3[nH]2)C1 (centres undefined) | nM | 102
O=C(OCc1c(F)cccc1F)N1CCOC(c2nc3cncnc3[nH]2)C1 (centres undefined) | nM | 111
O=C(OCc1ccccc1F)N1CCOC(c2nc3cncnc3[nH]2)C1 (centres undefined) | nM | 74
Cc1cccc(COC(=O)N2CCOC(c3nc4cncnc4[nH]3)C2)c1F (centres undefined) | nM | 83
Cc1ccc(COC(=O)N2CCO[C@H](c3nc4cncnc4[nH]3)C2)cc1F | nM | 100
